// speed of sound lookup, one value per entry
Details: 308.15 K; 101.33 kPa; Liquid; Sing-around technique in a fixed-path interferometer
Your answer is read as m/s, so omit the unit and give the number.

input: I have this molecule here, C1CCOCC1 [tetrahydropyran] , and I need its recorded speed of sound.
output: 1224.4

input: I have this molecule here, Cc1ccccc1 [toluene] , and I need its recorded speed of sound.
output: 1261.8

input: I have this molecule here, Cc1ccccc1Cl [2-chlorotoluene] , and I need its recorded speed of sound.
output: 1262.7

input: I have this molecule here, Cc1ccccc1C [1,2-dimethylbenzene] , and I need its recorded speed of sound.
output: 1306.1

input: I have this molecule here, c1ccccc1 [benzene] , and I need its recorded speed of sound.
output: 1252.9
